# System: UO-31 renal
# runDescription: NCI tumour cell line growth inhibition, 48 h; in the data active = GI50 below about 0.43 µM; inactive = the rest
Outcome codes: 1 (active), -1 (inactive)

INSERT INTO results (compound, testedsystem, grouplabel) VALUES
  ('CCOC(=O)c1ccccc1NC(c1ccccc1)c1ccc2cccnc2c1O (centres undefined)', 'UO-31 renal', -1),
  ('C=C1C(=O)O[C@H]2[C@H]1CC/C(Cn1cc(CNC(=O)c3cc4ccccc4[nH]3)nn1)=C\CC[C@@]1(C)O[C@@H]21', 'UO-31 renal', -1),
  ('N#CC1=C(N)Oc2c(ccc3ccccc23)C1c1ccccc1Cl (centres undefined)', 'UO-31 renal', 1),
  ('CCCCCCn1c(=N)n(CC(O)COc2cccc(C)c2)c2ccccc21 (centres undefined)', 'UO-31 renal', -1),
  ('N#Cc1c(-c2ccc(Cl)cc2)n([O-])c2ccccc2[n+]1=O', 'UO-31 renal', -1),
  ('CN(C)CCCn1c2c(c3ccncc3c1=O)C(=O)c1ccccc1-2', 'UO-31 renal', -1),
  ('COc1ccc(/C=C2\CC(C)CC3C2=NN(C(C)=O)C3c2ccc(OC)c(OC)c2)cc1OC (centres undefined)', 'UO-31 renal', -1),
  ('O=C(/C=C\c1ccc(Cl)c(Cl)c1)c1ccccc1', 'UO-31 renal', -1),
  ('Oc1ccc(-c2nc(-c3ccc4oc5ccc(-c6[nH]c(-c7ccc(O)cc7)nc6-c6ccccc6)cc5c4c3)c(-c3ccccc3)[nH]2)cc1', 'UO-31 renal', -1);

###

Measured TGI by item
# Tested on: KM12 colon
# runDescription: NCI tumour cell line growth inhibition, 48 h
experimentalReadout: TGI

INSERT INTO results (compound, experimentalreadout, observedvalue) VALUES
  ('CC1=C2CC3=C(C)C(=O)O[C@H]3C[C@@H](C)[C@@H]2CC1', 'TGI', '> 100 µM'),
  ('N#Cc1ccc(/C=C2\Cc3ccccc3C2=O)cc1', 'TGI', '> 100 µM'),
  ('O=C(CCc1nnc2s/c(=C\c3ccc(Cl)cc3Cl)c(=O)n12)Nc1cc(Cl)c(Cl)cc1Cl', 'TGI', '> 100 µM'),
  ('COc1cc(OC)cc(N(C)Cc2cnc3nc(N)nc(N)c3c2C)c1', 'TGI', '> 100 µM'),
  ('C[N+](C)([O-])Cc1cccc(NC(=O)c2ccc(C(=O)Nc3cccc(C[N+](C)(C)[O-])c3)cc2)c1', 'TGI', '> 100 µM'),
  ('COc1ccc(C2CC(c3cccc(Nc4ccnc5cc(Cl)ccc45)c3)=NN2c2ccc(Cl)cc2)cc1 (stereo not given)', 'TGI', '23.9 µM'),
  ('COC(=O)[C@@H](C)C[C@H](Cc1ccccc1)NC(=O)c1cccc([C@@H](C[C@H](C(C)C)N(C)C(=O)[C@@H](NC(=O)[C@H]2CCCCN2C)C(C)C)OC(C)=O)n1', 'TGI', '> 16.7 µM'),
  ('Clc1ccc(CCn2ccc3ccccc32)c(Cl)c1', 'TGI', '> 100 µM'),
  ('COc1ccc(-c2nccn2-c2cc(OC)c(OC)c(OC)c2)cc1', 'TGI', '> 100 µM'),
  ('COC(=O)C(I(OS(=O)(=O)c1ccc(C)cc1)c1ccccc1)=P(c1ccccc1)(c1ccccc1)c1ccccc1', 'TGI', '34.2 µM'),
  ('CCC1(CC)C(=O)N(C(=O)c2ccc(Cl)cc2)N(C(=O)c2ccccc2Cl)C1=O', 'TGI', '> 100 µM'),
  ('CC(=O)/C=C\C(=O)NNS(=O)(=O)c1ccc(C)cc1', 'TGI', '> 100 µM'),
  ('CCCCCCCCCCCCOC1C(C(COC2OC(C(O)CO)C3OC(C)(C)OC23)OC(=O)Nc2ccc([N+](=O)[O-])cc2)OC2OC(C)(C)OC21 (stereo not given)', 'TGI', '4.1 µM'),
  ('O=C(/C=C\c1ccc(Cl)c(Cl)c1)c1ccccc1', 'TGI', '8.88 µM'),
  ('CC(C)NC(=O)OCc1c(COC(=O)NC(C)C)c(-c2ccc[n+](COC(=O)C3CCCCC3)c2)n2c1CCC2', 'TGI', '> 100 µM'),
  ('COC[C@H](Cc1ccccc1)N=Cc1ccccc1', 'TGI', '> 100 µM'),
  ('O=C(CN1C(=O)c2ccccc2C1=O)NC1(C(=O)O)CCCC1', 'TGI', '> 100 µM'),
  ('N#Cc1c(C#N)c(-c2ccco2)n(/N=C/c2ccco2)c1N', 'TGI', '> 100 µM'),
  ('CCc1cccc(C(C)C)c1C1C(=O)C(=O)N(c2nc3ccccc3s2)C(=O)C1=O', 'TGI', '> 100 µM'),
  ('O=S(O)CCCSSCCCCSSCCCS(=O)O', 'TGI', '> 100 µM'),
  ('CCN(CC)CCCC(C)NC(=S)N/N=C(\C)c1ccccn1 (stereo not given)', 'TGI', '> 100 µM'),
  ('CC(=S)NC1C(Oc2ccc3c(C)cc(=O)oc3c2)OC(CO)C(O)C1O (stereo not given)', 'TGI', '> 100 µM'),
  ('c1ccc(C2(c3cc4ccccc4[nH]3)OCCO2)cc1', 'TGI', '> 100 µM'),
  ('Fc1ccccc1N=c1oc2ccc(Br)cc2cc1-c1nc2ccccc2[nH]1', 'TGI', '> 54.9 µM'),
  ('CN(C)CCCN1c2ccc3ccccc3c2Sc2cccc(Cl)c21', 'TGI', '4.28 µM');
